- target-or-test-system: Elastase (Pseudomonas aeruginosa (strain ATCC 15692 / PAO1 / 1C / PRS 101 / LMG12228))
- Sequence (P14756 whole entry): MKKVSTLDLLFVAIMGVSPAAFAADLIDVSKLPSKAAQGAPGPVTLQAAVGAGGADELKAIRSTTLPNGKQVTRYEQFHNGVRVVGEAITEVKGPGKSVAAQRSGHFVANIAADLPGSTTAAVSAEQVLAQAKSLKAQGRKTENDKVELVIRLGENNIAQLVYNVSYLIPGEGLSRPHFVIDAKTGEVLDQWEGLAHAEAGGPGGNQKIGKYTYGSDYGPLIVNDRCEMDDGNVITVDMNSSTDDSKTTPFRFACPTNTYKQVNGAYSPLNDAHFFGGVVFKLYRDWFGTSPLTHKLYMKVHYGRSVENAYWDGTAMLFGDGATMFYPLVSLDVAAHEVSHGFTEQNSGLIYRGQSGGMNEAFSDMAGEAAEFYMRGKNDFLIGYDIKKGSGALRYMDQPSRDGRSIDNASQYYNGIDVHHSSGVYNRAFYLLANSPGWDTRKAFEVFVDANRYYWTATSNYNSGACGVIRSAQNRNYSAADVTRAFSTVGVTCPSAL
- experiment-description: Inhibition of Pseudomonas aeruginosa LasB elastase
quantity: pIC50
For clarity, pIC50 is expressed as the negative log10 of concentration in mol/L.

compound NC(=O)[C@H](Cc1ccc(O)cc1)NC(=O)[C@H](Cc1ccccc1)NC(=O)CS , pIC50 observed: 5.22

---

- target-or-test-system: Elastase (Pseudomonas aeruginosa (strain ATCC 15692 / PAO1 / 1C / PRS 101 / LMG12228))
- experiment-description: Inhibition of Pseudomonas aeruginosa LasB elastase using aminobenzoyl-Ala-Gly-Leu-Ala-p-nitro-benzyl-amide as substrate b microtiter-based fluorimetric assay
Item-by-item account of IC50
Just the number please, in µM, no unit attached.

| chemical-structure | IC50, µM |
| --- | --- |
| Cc1c(O)c(=S)ccn1Cc1ccc(-c2ccccc2)cc1 | 3 |
| CC(=O)SCC(=O)Nc1cc(C)c(Br)cc1Cl | 6 |

Next up:
Kindly note: Elastase (Pseudomonas aeruginosa (strain ATCC 15692 / PAO1 / 1C / PRS 101 / LMG12228)), O=C(Nc1ccc(O)c(=O)cc1)Nc1cccc2ccccc12 , IC50 value reported: 1

---

- experiment-description: Binding affinity to D-galactose (unknown origin) assessed as dissociation constant
quantity: pKd
For clarity, pKd is expressed as the negative log10 of concentration in mol/L.

compound O=C[C@H](O)[C@@H](O)[C@@H](O)[C@H](O)CO , pKd observed: 4.06

---

- Test system: Pseudomonas aeruginosa
- experiment-description: Antimicrobial activity against Pseudomonas aeruginosa assessed as reduction in bacterial growth
- Format: functional, organism-based
Square brackets hold non-standard residues; d marks the D form. Peptide text beside a SMILES is read from it.
quantity: MIC (µM)
Just the number please, in µM, no unit attached.

compound CCCCCCCCCCCCCB(O)O , MIC observed: 1

compound CC[C@H](C)[C@H](NC(=O)[C@H](CCCNC(=N)N)NC(=O)[C@H](CCCNC(=N)N)NC(=O)[C@H](Cc1ccccc1)NC(=O)[C@H](CC(C)C)NC(=O)[C@H](CCCNC(=N)N)NC(=O)[C@@H](N)CCCNC(=N)N)C(=O)N[C@@H](CC(C)C)C(=O)N[C@@H](CCCNC(=N)N)C(=O)N[C@@H](Cc1ccc(O)cc1)C(=O)N[C@@H](CC(C)C)C(=O)O (H-RRLFRRILRYL-OH) , MIC observed: 2.5

compound CC(=O)Oc1cccc(C(=O)NCCCC(CCCNC(=O)c2cccc(OC(C)=O)c2OC(C)=O)(CCCNC(=O)c2cccc(OC(C)=O)c2OC(C)=O)NC(=O)CCC(=O)N[C@@H](C(=O)N[C@@H]2C(=O)N3[C@@H]2SC(C)(C)[C@@H]3C(=O)O)c2ccccc2)c1OC(C)=O , MIC observed: 0.39

compound CC(=O)Oc1cccc(C(=O)NCCCC(CCCNC(=O)c2cccc(OC(C)=O)c2OC(C)=O)(CCCNC(=O)c2cccc(OC(C)=O)c2OC(C)=O)NC(=O)CCC(=O)N[C@@H](C(=O)N[C@@H]2C(=O)N3[C@@H]2SC(C)(C)[C@@H]3C(=O)O)c2ccc(O)cc2)c1OC(C)=O , MIC observed: 0.39

compound C[C@@H](N)C(=O)N[C@H](CCCCN)C(=O)N[C@H](CCCNC(=N)N)C(=O)N[C@H](Cc1c[nH]cn1)C(=O)N[C@H](Cc1c[nH]cn1)C(=O)NCC(=O)N[C@H](Cc1ccc(O)cc1)C(=O)N[C@H](CCCCN)C(=O)N[C@H](CCCNC(=N)N)C(=O)N[C@H](CCCCN)C(=O)N[C@H](Cc1ccccc1)C(=O)N[C@H](Cc1c[nH]cn1)C(N)=O (H-[dA][dK][dR][dH][dH]G[dY][dK][dR][dK][dF][dH]-NH2) , MIC observed: 2
